Measured CC50 by item
Test system: H9c2 (ATCC CRL-1446) cells
Experiment: Cytotoxicity in H9c2 cells (CCK-8)
Type: cell-based
Details: H9c2 cell line
Counter-ions that a name gives are not always drawn.
Express your answer in µM, writing the number without its unit.

Worked set:
1) Cc1cc(COc2ccc(NC(=N)N)cc2)cc(COc2ccc(NC(=N)N)cc2)c1 [MD-125, di(trifluoroacetate)] ... 100
2) N=C(N)c1ccc(OCc2cccc(COc3ccc(C(=N)N)cc3)c2)cc1 [DB2559, dihydrochloride] ... 100

Consider the additional molecule presented here.
What value of CC50 has been recorded for this entry: `N=C(N)c1ccc(OCc2ccc(-c3ccc(C(=N)N)cc3)cc2)cc1`
100

----------
Measured CC50 at 24 h by item
Assay: Cytotoxicity on mammalian cells (CCK-8), NIH3T3
Type: cell-based
Conditions: mouse, NIH3T3 cells, 3T3 cell line
Where a name gives a salt, the structure may show the parent alone.

Worked set:
1. Cc1cc(COc2ccc(C3=NCCCN3)cc2)cc(COc2ccc(C3=NCCCN3)cc2)c1 [MD-113, dihydrochloride] ... > 100 µM
2. Cc1cc(COc2ccc(CN)cc2)cc(COc2ccc(CN)cc2)c1 [MD-106, dihydrochloride] ... 25 µM
3. CC(C)NC(=N)c1ccc(OCc2cccc(COc3ccc(C(=N)NC(C)C)cc3F)c2F)c(F)c1 [MD-111, dihydrochloride] ... > 100 µM
4. COc1cc(C(=N)N)ccc1OCc1cc(COc2ccc(C(=N)N)cc2OC)cc(C(C)(C)C)c1 [MD-114, dihydrochloride] ... 50 µM
5. Cc1cc(CSc2ccc(C(=N)N)cc2)cc(CSc2ccc(C(=N)N)cc2)c1 [MD-117, dihydrochloride] ... 25 to 50 µM
6. Cc1cc(COc2cccc(C(=N)N)c2)cc(COc2cccc(C(=N)N)c2)c1 [MD-116, dihydrochloride] ... > 100 µM

Consider the additional compound presented here.
What value of CC50 at 24 h has been recorded for this entry: Cc1cc(COc2ccc(C(=N)NC(C)C)cc2)cc(COc2ccc(C(=N)NC(C)C)cc2)c1 [MD-102, dihydrochloride]
> 100 µM

----------
Test: Cytotoxicity in H9c2 cells (CCK-8)
Assay type: cell-based
Conditions: rat, H9c2 cells (ATCC CRL-1446); H9c2 cells; 24 hours
Experimental: The cytotoxicity in H9c2 (ATCC®CRL-1446™) cells was also determined. The H9c2 cells were maintained in DMEM (Dulbecco's Modified Eagle's Medium) supplemented with 10% fetal bovine serum (MidSci; S01520HI) and 1% penicillin-streptomycin (Sigma-Aldrich; P4333) at 37° C. with 5% CO2. The H9c2 cells were seeded in 96-well plate one day before the experiment. […] After 3 hours incubation at 37° C., the absorbance at 450 nm was recorded by a plate reader.
Measured IC50 at 24 h by item
Express your answer in µM, writing the number without its unit.

Worked set:
1) N=C(N)Nc1ccc(-c2ccc(-c3ccc(NC(=N)N)cc3)cc2)cc1 ... 50
2) N=C(N)Nc1ccc(-c2ccc(-c3ccc(NC(=N)N)cc3Cl)o2)c(Cl)c1 ... 50

What value of IC50 at 24 h has been recorded for this entry: `N=C(N)c1ccc(-c2ccc(-c3ccc(-c4ccc(C(=N)N)o4)o3)o2)o1`
100

What value of IC50 at 24 h has been recorded for this entry: `N=C(N)c1ccc(-c2ccc(-c3ccc(-c4ccc(C(=N)N)o4)s3)s2)o1`
50

What value of IC50 at 24 h has been recorded for this entry: `N=C(N)Nc1ccc(-c2ccc(-c3nc4ccc(NC(=N)N)cc4[nH]3)o2)cc1`
100

----------
Test: Cytotoxicity on mammalian cells (CCK-8), HEK293
Assay type: cell-based
Details: human, HEK293 cells; HEK293 cell line; 24 h
Structures can show the parent of a compound that is named as a salt.
RESULT TYPE: CC50 at 24 h

Worked set:
1) CC(C)NC(=N)c1ccc(OCc2cccc(COc3ccc(C(=N)NC(C)C)cc3)c2F)cc1 [MD-110, dihydrochloride] ... > 100 µM
2) Cc1cc(CSc2ccc(C(=N)N)cc2)cc(CSc2ccc(C(=N)N)cc2)c1 [MD-117, dihydrochloride] ... 25 to 50 µM
3) Cc1cc(COc2cccc(C(=N)N)c2)cc(COc2cccc(C(=N)N)c2)c1 [MD-116, dihydrochloride] ... > 100 µM

What value of CC50 at 24 h has been recorded for this entry: CC(C)NC(=N)c1ccc(OCc2cccc(COc3ccc(C(=N)NC(C)C)cc3F)c2F)c(F)c1 [MD-111, dihydrochloride]
> 100 µM

What value of CC50 at 24 h has been recorded for this entry: N=C(N)c1ccc(OCc2cc(COc3ccc(C(=N)N)cc3)cc(COc3ccc(C(=N)N)cc3)c2)cc1 [MD-107, trihydrochloride]
> 100 µM

What value of CC50 at 24 h has been recorded for this entry: N=C(N)c1ccc(OCc2ccc(COc3ccc(C(=N)N)cc3)cc2)cc1 [MD-101, dihydrochloride]
> 100 µM

What value of CC50 at 24 h has been recorded for this entry: Cc1cc(COc2ccc(C3=NCCN3)cc2)cc(COc2ccc(C3=NCCN3)cc2)c1 [MD-129, dihydrochloride]
50 µM

What value of CC50 at 24 h has been recorded for this entry: Cc1cc(COc2ccc(C3=NCCCN3)cc2)cc(COc2ccc(C3=NCCCN3)cc2)c1 [MD-113, dihydrochloride]
> 100 µM

What value of CC50 at 24 h has been recorded for this entry: Cc1cc(COc2ccc(C(=N)NC(C)C)cc2)cc(COc2ccc(C(=N)NC(C)C)cc2)c1 [MD-102, dihydrochloride]
> 100 µM

What value of CC50 at 24 h has been recorded for this entry: CC(C)(C)c1cc(COc2ccc(C(=N)N)cc2F)cc(COc2ccc(C(=N)N)cc2F)c1 [MD-115, dihydrochloride]
25 to 50 µM

What value of CC50 at 24 h has been recorded for this entry: Cc1cc(CSc2ccc(C3=NCCN3)cc2)cc(CSc2ccc(C3=NCCN3)cc2)c1 [MD-118, dihydrochloride]
25 µM

What value of CC50 at 24 h has been recorded for this entry: Cc1cc(CCc2ccc(C(=N)N)cc2)cc(CCc2ccc(C(=N)N)cc2)c1 [MD-108, dihydrochloride]
50 µM

What value of CC50 at 24 h has been recorded for this entry: Cc1cc(COc2ccc(CN)cc2)cc(COc2ccc(CN)cc2)c1 [MD-106, dihydrochloride]
25 µM

----------
Assay: Cytotoxicity in H9c2 cells (CCK-8)
Format: cell-based
Details: rat, H9c2 cells; H9c2 cell line
Protocol: The cytotoxicity in H9c2 (ATCC®CRL-1446™) cells was also determined. The H9c2 cells were maintained in DMEM (Dulbecco's Modified Eagle's Medium) supplemented with 10% fetal bovine serum (MidSci; S01520HI) and 1% penicillin-streptomycin (Sigma-Aldrich; P4333) at 37° C. with 5% CO2. The H9c2 cells were seeded in 96-well plate one day before the experiment. […] After 3 hours incubation at 37° C., the absorbance at 450 nm was recorded by a plate reader.
Where a name gives a salt, the structure may show the parent alone.
RESULT TYPE: CC50 at 24 h (µM)
Express your answer in µM, writing the number without its unit.

1) Fc1cc(C2=NCCN2)ccc1OCc1cccc(COc2ccc(C3=NCCN3)cc2F)c1F [DB2554, dihydrochloride] ... 50
2) N=C(N)c1ccc(OCCCCCCOc2ccc(C(=N)N)cc2)cc1 ... 25
3) Cc1cc(-c2nc3cc(C(=N)N)ccc3n2C)sc1-c1ccc(OCCCCOc2ccc(C(=N)N)cc2)cc1 ... 12.5
4) N=C(N)c1ccc(OCc2cccc(COc3ccc(C(=N)N)cc3F)c2F)c(F)c1 [DB2558, dihydrochloride] ... 50
5) CC(C)(C)c1cc(COc2ccc(C(=N)N)cc2F)cc(COc2ccc(C(=N)N)cc2F)c1 [MD-115, dihydrochloride] ... 25
6) Cc1cc(CCc2ccc(C(=N)N)cc2)cc(CCc2ccc(C(=N)N)cc2)c1 [MD-108, dihydrochloride] ... 12.5
7) Fc1c(COc2ccc(C3=NCCN3)cc2)cccc1COc1ccc(C2=NCCN2)cc1 [DB2510, dihydrochloride] ... 25
8) Cc1cc(COc2ccc(CN)cc2)cc(COc2ccc(CN)cc2)c1 [MD-106, dihydrochloride] ... 12.5
9) CC(C)(C)c1cc(COc2ccc(C(=N)N)cc2)cc(COc2ccc(C(=N)N)cc2)c1 [MD-105, dihydrochloride] ... 25

What value of CC50 at 24 h has been recorded for this entry: COc1cc(C2=NCCN2)ccc1OCc1cccc(COc2ccc(C3=NCCN3)cc2OC)c1F [DB2555, dihydrochloride]
50

----------
Tested on: K. pneumoniae (43816)
Experiment: MIC, sensitization fold and FIC index on K. pneumoniae
Assay type: cell-based
Settings: K. pneumoniae towards the antibiotic
RESULT TYPE: Sensitization fold with 5 μg/ml MD-124 (fold)
Express your answer in fold, writing the number without its unit.

Worked set:
1) CC(=O)O[C@H]1C[C@@]2(C)[C@@H](C[C@@H](O)[C@H]3[C@@]4(C)CC[C@@H](O)[C@@H](C)[C@@H]4CC[C@@]32C)/C1=C(\CCC=C(C)C)C(=O)O [Fusidic acid, reference compound] ... 4
2) CO[C@H]1/C=C/O[C@@]2(C)Oc3c(C)c(O)c4c(O)c(c(/C=N/N5CCN(C)CC5)c(O)c4c3C2=O)NC(=O)/C(C)=C\C=C\[C@H](C)[C@H](O)[C@@H](C)[C@@H](O)[C@@H](C)[C@H](OC(C)=O)[C@@H]1C ... 252

Consider the additional molecule presented here.
What value of Sensitization fold with 5 μg/ml MD-124 has been recorded for this entry: CO[C@@H]1[C@@H](OC(N)=O)[C@@H](O)[C@H](Oc2ccc3c(O)c(NC(=O)c4ccc(O)c(CC=C(C)C)c4)c(=O)oc3c2C)OC1(C)C [Novobiocin, reference compound]
32
